details: 298.15 K; 101.33 kPa; Liquid; Quartz crystal interferometer (Mittal Enterprises, India)
measure name: speed of sound (m/s)
Numbers only, in m/s.

Known results for compounds:
# compound, speed of sound / m/s
records = [
    ("CCO", 1145),
    ("CC1CCCCC1", 1209),
    ("CCC(C)O (stereo not given)", 1213),
    ("CCCC(C)O (stereo not given)", 1235),
]

**Query** Entry `CC(C)O` : reported speed of sound = ?
**Result** 1142

---

details: 298.15 K; 101.33 kPa; Liquid; Vibrating tube method
Consider the following compounds; for each one, report its mass density.
Give bare numbers, in kg/m3.

Below, 3 compounds whose answers are already recorded.
# compound, mass density, kg/m3
records = [
    ("CC1CCCCC1", 764.99),
    ("CCCCC(C)O (stereo not drawn)", 810.25),
    ("CCC(C)O (stereo not drawn)", 802.54),
]

// batch mode: one mass density value per listed entry
1. CCCC(C)O (stereo not drawn)
2. CCO
3. CCCCCCC(C)O (stereo not drawn)

**Result**
1: 805.4; 2: 785.32; 3: 816.13

For each entry beneath this line, provide reported mass density.
1. CC(C)O
2. CCCCCC(C)O (stereo not drawn)

**Result**
1: 781.06; 2: 813.33

---

conditions: 298.15 K; 101.33 kPa; Liquid; Capillary tube (Ostwald / Ubbelohde) method
Numbers after ± are expanded uncertainties.
measure name: viscosity

A selection of reference data follows.
# compound, meas value
data = [
    ("CCCCCCC(C)O (stereo not drawn) [2-octanol]", "6.568 ± 0.1 mPa·s"),
    ("CCCCCC(C)O (stereo not drawn) [2-heptanol]", "5.346 ± 0.039 mPa·s"),
    ("CCC(C)O (stereo not drawn) [butan-2-ol]", "2.907 ± 0.022 mPa·s"),
    ("CCCCC(C)O (stereo not drawn) [2-hexanol]", "4.204 ± 0.048 mPa·s"),
    ("CCO [ethanol]", "1.093 ± 0.009 mPa·s"),
    ("CCCC(C)O (stereo not drawn) [pentan-2-ol]", "3.421 ± 0.039 mPa·s"),
]

Take each entry in turn and give its viscosity.
1. CC1CCCCC1 [methylcyclohexane]
2. CC(C)O [propan-2-ol]

**Result**
1: 0.683 ± 0.007 mPa·s; 2: 2.098 ± 0.016 mPa·s
